Experiment: Liver microsomal stability in vitro, rat
Type: in vitro ADME
Conditions: pH 7.4; rat liver microsomes 0.5 mg protein/mL, 1 μM test compound, 37° C.; read-out: Rat T1/2
Procedure: Evaluation of in vitro liver microsomal stability of the compound of the present disclosure was tested by the following method: Buffer: 100 mM potassium phosphate buffer, pH 7.4; […] MgCl2. […] 10. Data analysis: The peak area of the corresponding compound and internal standard was detected by LC-MS/MS, and the T1/2 of the compound was calculated by the following formula: […]
Hi there, I'd appreciate the recorded half-life at 1 μM for every entry that follows.
Answers are plain numbers, in h.

NC(=O)c1cccc2cn(-c3ccc([C@]4(F)CCCNC4)cc3)nc12 (single isomer, unassigned); 1.07

Kindly consider the entry below.
Ask | Any idea what its half-life at 1 μM is? The compound is NC(=O)c1cccc2cn(-c3ccc([C@@H]4CCCNC4)cc3)nc12 [Niraparib, reference compound]
Reply | 1.76

---

Consider the following molecules; for each one, report its half-life at 1 μM.
experiment: Liver microsomal stability in vitro, dog; type: in vitro ADME; conditions: pH 7.4; dog liver microsomes 0.5 mg protein/mL, 1 μM test compound, 37° C.; read-out: Dog T1/2
Give bare numbers, in min.

NC(=O)c1cccc2cn(-c3ccc([C@]4(F)CCCNC4)cc3)nc12 (single isomer, unassigned) [Example 23]; 20.3

Ask | Given the entry NC(=O)c1cccc2cn(-c3ccc([C@@H]4CCCNC4)cc3)nc12 [Niraparib, reference compound] , report its measured half-life at 1 μM.
Reply | 22.6

---

target: CYP3A4 (Homo sapiens, UniProt P08684); construct: from tissue; host or cells: human liver microsomes (HLM); experiment: Inhibition of human liver microsomal CYP450 enzymes, CYP3A4; assay type: in vitro ADME; conditions: human liver microsomes, substrate Midazolam 5 μM; Reference = ketoconazole; read-out: IC50 3A4 (Midazolam)
Sequence (P08684 whole entry): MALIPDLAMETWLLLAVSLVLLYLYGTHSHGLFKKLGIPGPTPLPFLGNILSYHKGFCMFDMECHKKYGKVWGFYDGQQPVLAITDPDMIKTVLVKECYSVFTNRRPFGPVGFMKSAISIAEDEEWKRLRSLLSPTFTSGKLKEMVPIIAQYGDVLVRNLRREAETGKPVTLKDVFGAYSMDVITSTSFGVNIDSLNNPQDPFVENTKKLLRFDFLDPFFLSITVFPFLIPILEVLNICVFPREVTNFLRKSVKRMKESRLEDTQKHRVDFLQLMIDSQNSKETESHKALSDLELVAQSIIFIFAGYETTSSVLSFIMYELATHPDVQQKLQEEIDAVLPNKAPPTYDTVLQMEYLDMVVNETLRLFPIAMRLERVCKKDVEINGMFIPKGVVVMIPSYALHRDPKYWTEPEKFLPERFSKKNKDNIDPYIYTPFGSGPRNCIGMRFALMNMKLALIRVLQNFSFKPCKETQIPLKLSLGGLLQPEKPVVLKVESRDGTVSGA
quantity-name: IC50

Ask | I'd like to know its IC50. The compound in question is NC(=O)c1cccc2cn(-c3ccc([C@]4(F)CCCNC4)cc3)nc12 (single isomer, unassigned)
Reply | > 10 µM

---

Can you tell me pIC50 for the items I'm about to list?
target: PARP1 (Homo sapiens); construct: purchased BPS 80580; experiment: PARP1 Colorimetric Assay (PARP-1 kinase inhibitory activity); type: biochemical; conditions: PARP1 colorimetric assay kit, 1 hour at room temperature; read-out: PARP1 (in vitro enzymatic inhibitory activity, IC50)
Sequence (P09874 whole entry): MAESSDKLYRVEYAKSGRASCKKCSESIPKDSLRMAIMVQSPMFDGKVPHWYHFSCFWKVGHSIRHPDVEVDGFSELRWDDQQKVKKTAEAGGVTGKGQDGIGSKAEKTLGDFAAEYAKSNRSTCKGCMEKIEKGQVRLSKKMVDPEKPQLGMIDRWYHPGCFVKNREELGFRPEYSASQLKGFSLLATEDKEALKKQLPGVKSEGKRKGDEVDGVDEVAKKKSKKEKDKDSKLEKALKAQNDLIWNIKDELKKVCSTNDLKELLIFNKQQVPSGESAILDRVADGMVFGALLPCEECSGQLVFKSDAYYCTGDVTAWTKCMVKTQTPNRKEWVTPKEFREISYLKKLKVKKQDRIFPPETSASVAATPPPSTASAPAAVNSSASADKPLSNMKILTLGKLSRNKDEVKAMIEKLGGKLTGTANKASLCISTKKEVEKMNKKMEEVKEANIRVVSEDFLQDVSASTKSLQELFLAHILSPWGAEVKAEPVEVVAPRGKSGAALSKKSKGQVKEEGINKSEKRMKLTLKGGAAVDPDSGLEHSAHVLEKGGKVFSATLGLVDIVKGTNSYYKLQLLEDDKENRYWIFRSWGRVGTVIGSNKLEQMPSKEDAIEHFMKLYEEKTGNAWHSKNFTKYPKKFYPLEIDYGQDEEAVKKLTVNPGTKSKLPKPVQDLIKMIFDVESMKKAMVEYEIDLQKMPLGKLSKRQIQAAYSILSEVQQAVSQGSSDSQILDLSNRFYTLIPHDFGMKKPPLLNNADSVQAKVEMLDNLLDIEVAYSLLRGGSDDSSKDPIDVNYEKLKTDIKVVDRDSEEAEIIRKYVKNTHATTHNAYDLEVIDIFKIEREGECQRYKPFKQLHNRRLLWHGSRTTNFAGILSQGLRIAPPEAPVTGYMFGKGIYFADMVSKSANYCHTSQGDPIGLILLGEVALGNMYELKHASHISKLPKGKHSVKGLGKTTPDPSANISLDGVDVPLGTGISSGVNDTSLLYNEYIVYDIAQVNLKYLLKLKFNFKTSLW
pIC50: −log10 of the molar value.

Here are 5 molecules together with their reported answers.
[2H][C@]1(c2ccc(-n3cc4cc(F)cc(C(N)=O)c4n3)c(F)c2)CCCNC1 [Example 21]; > 7.00
[2H]C1(c2ccc(-n3cc4cc(F)cc(C(N)=O)c4n3)cc2)CCCNC1 (stereo not shown) [Example 4]; > 7.00
NC(=O)c1c(F)ccc2cn(-c3ccc(C4(F)CCCNC4)cc3)nc12 (stereo not shown) [Example 37]; 6.30 to 7.00
C[C@@]1(c2ccc(-n3nc4c(C(N)=O)cccc4c3F)cc2)CCCNC1 [Example 54]; 6.00 to 6.30
[2H][C@@]1(c2ccc(-n3cc4cc(F)cc(C(N)=O)c4n3)cc2F)CCCNC1 [Example 17]; > 7.00

Each molecule below has a reported value. Please supply its pIC50.
1. C[C@@]1(c2ccc(-n3cc4cccc(C(N)=O)c4n3)cc2F)CCCNC1 [Example 51]
2. C[C@]1(c2ccc(-n3nc4c(C(N)=O)cccc4c3F)cc2)CCCNC1 [Example 53]
3. [2H][C@]1(c2ccc(-n3cc4cccc(C(N)=O)c4n3)c(F)c2)CCCNC1 [Example 14]
4. [2H][C@]1(c2ccc(-n3nc4c(C(N)=O)cccc4c3F)cc2)CCCNC1 [Example 11]

Reply |
6.30 to 7.00
6.00 to 6.30
6.30 to 7.00
6.30 to 7.00

Ask | What value of pIC50 has been reported for the following molecule? NC(=O)c1ccc(F)c2cn(-c3ccc(C4(F)CCCNC4)cc3)nc12 (stereo not shown) [Example 40]
Reply | 6.30 to 7.00
